// values below are reported koff
target_under_test: recombinant human KLK5 (human) (UniProt Q9Y337)
Sequence (Q9Y337 67-293): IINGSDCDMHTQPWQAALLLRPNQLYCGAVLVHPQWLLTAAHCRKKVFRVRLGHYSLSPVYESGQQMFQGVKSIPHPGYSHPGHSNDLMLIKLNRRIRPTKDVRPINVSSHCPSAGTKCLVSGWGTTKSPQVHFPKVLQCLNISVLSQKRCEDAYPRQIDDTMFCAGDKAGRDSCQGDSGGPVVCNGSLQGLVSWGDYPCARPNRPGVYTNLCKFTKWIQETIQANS
method_description: SPR BIAcore T200, antibody captured by anti-human Fc, human KLK5 as analyte, 37 C
Respond numerically; units are s⁻¹ and should not be typed.

Solved entries:
binder | koff / s⁻¹
hu10C5.L5H28 (antibody, V domains shown) VH: EVQLVESGGGLVQPGGSLRLSCAASGFSLSSYGVTWVRQAPGKGLEWIGYITSNYGVSYYASWAKSRSTISRDTSKNTVYLQMGSLRAEDMAVYYCARENPDYGYAYDAWGQGTTVTVSS VL: AIRMTQSPSSFSASTGDRVTITCQASESISNELSWYQQKPGKAPKLLIYYASTLASGVPSRFSGSGSGTDFTLTISSLQPEDFATYYCAQGFGSSGVENVFGGGTKVEIK | 0.00108
hu3-3F5.L5H19 (antibody, V domains shown) VH: EVQLLESGGGLVQPGGSLRLSCAVSGFSLNDYGVSWVRQAPGKGLEWVGAIGSSGVAWYANFAKGRFTISRDNSKNTLYLQMNSLRAEDTAVYYCARDRDYGYRADDATSGMDLWGRGTLVTVSS VL: AIRMTQSPSSFSASTGDRVTITCQASESIGNALAWYQQKPGKAPKLLIYDASDLASGVPSRFSGSGSGTDFTLTISSLQPEDFATYYCQQGDSHNNVDNIFGGGTKVEIK | 0.000201

Please give the measured koff for this binder: 10C5 (antibody, V domains shown) VH: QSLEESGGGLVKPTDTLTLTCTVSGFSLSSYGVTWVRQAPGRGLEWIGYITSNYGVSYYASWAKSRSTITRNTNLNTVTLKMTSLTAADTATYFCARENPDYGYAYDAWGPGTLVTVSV VL: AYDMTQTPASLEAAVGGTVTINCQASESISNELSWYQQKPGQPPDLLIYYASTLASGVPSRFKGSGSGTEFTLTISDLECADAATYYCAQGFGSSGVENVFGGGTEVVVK
0.000292
